target: δ-opioid receptor of the mouse vas deferens (MVD) (mouse), P32300; assay: cell-based or functional assay
Sequence (P32300 whole entry, stated change not applied): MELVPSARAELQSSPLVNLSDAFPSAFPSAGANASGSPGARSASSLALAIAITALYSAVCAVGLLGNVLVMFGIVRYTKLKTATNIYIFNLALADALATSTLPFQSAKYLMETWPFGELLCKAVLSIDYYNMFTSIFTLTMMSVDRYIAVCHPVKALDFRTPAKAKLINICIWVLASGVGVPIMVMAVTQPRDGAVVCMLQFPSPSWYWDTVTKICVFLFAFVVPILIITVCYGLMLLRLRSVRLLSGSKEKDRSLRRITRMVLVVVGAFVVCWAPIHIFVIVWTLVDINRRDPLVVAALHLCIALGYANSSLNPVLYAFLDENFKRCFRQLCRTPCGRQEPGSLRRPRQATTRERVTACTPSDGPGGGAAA
Non-standard residues stand in square brackets, D forms with d. *: point of attachment. des‑NH2‑α‑pyrrole‑1‑yl = replacement of the α-amino group by a pyrrol-1-yl group; Dmt = Cc1cc(O)cc(C)c1C[C@H](N)C(=O)O; NH‑tetrazole‑5‑yl = n1nc(N*)n[nH]1; Tic = O=C(O)[C@@H]1Cc2ccccc2CN1
QUANTITY KIND: MVD pA2
// return just the number, without any unit appended

The following binders have reported results that may help.
>  <BINDER>
H-[Dmt]-[Tic]-{NH‑tetrazole‑5‑yl} [H-Dmt-Tic-NH-tetrazole-5-yl]

>  <MVD pA2>
7.44

$$$$
>  <BINDER>
{des‑NH2‑α‑pyrrole‑1‑yl}-[Dmt]-[Tic]-OH [[des-NH2-α-pyrrole-1-yl]-Dmt-Tic-OH]

>  <MVD pA2>
6.39

$$$$

Please fill in: MVD pA2 reported for H-[Dmt]-[Tic]-Ala-OH [H-Dmt-Tic-Ala-OH] = 8.4

Please fill in: MVD pA2 reported for H-[Dmt]-[Tic]-Ala-NH2 [H-Dmt-Tic-Ala-NH2] = 8
